Taken from the supplement of paper PMC11246515.

# ASSAY_DETAILS: total protein half-life in vivo (active degradation + dilution); higher = more stable protein
# APPLIED_CONDITIONS: E. coli NCM3722 delta-smpB; growth: N-lim chemostat; doubling time 6 h
Please go through the items and note down their total protein half-life in vivo.
Answers are plain numbers, in h.

# total protein half-life in vivo (sequence: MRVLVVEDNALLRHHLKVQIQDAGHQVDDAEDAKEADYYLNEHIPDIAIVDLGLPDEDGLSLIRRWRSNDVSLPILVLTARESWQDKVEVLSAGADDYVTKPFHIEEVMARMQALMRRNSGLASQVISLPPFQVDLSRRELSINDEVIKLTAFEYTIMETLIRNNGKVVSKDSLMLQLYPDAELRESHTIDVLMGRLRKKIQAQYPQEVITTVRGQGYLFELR ) is 4.19

Give total protein half-life in vivo for all sequences that follow.
1. MDLASLRAQQIELASSVIREDRLDKDPPDLIAGADVGFEQGGEVTRAAMVLLKYPSLELVEYKVARIATTMPYIPGFLSFREYPALLAAWEMLSQKPDLVFVDGHGISHPRRLGVASHFGLLVDVPTIGVAKKRLCGKFEPLSSEPGALAPLMDKGEQLAWVWRSKARCNPLFIATGHRVSVDSALAWVQRCMKGYRLPEPTRWADAVASERPAFVRYTANQP
2. MIRFEHVSKAYLGGRQALQGVTFHMQPGEMAFLTGHSGAGKSTLLKLICGIERPSAGKIWFSGHDITRLKNREVPFLRRQIGMIFQDHHLLMDRTVYDNVAIPLIIAGASGDDIRRRVSAALDKVGLLDKAKNFPIQLSGGEQQRVGIARAVVNKPAVLLADEPTGNLDDALSEGILRLFEEFNRVGVTVLMATHDINLISRRSYRMLTLSDGHLHGGVGHE [P0A9R7]
3. MSGLPLISRRRLLTAMALSPLLWQMNTAHAAAIDPNRIVALEWLPVELLLALGIVPYGVADTINYRLWVSEPPLPDSVIDVGLRTEPNLELLTEMKPSFMVWSAGYGPSPEMLARIAPGRGFNFSDGKQPLAMARKSLTEMADLLNLQSAAETHLAQYEDFIRSMKPRFVKRGARPLLLTTLIDPRHMLVFGPNSLFQEILDEYGIPNAWQGETNFWGSTAVSIDRLAAYKDVDVLCFDHDNSKDMDALMATPLWQAMPFVRAGRFQRVPAVWFYGATLSAMHFVRVLDNAIGGKA
4. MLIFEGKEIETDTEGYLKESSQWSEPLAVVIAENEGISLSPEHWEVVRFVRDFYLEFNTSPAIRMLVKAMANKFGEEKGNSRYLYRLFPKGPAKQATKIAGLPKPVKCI [P0AB18]
5. MSQVQSGILPEHCRAAIWIEANVKGEVDALRAASKTFADKLATFEAKFPDAHLGAVVAFGNNTWRALSGGVGAEELKDFPGYGKGLAPTTQFDVLIHILSLRHDVNFSVAQAAMEAFGDCIEVKEEIHGFRWVEERDLSGFVDGTENPAGEETRREVAVIKDGVDAGGSYVFVQRWEHNLKQLNRMSVHDQEMVIGRTKEANEEIDGDERPETSHLTRVDLKEDGKGLKIVRQSLPYGTASGTHGLYFCAYCARLHNIEQQLLSMFGDTDGKRDAMLRFTKPVTGGYYFAPSLDKLMAL

4.62
5.32
3.92
4.08
3.14
